Known GI50 of a selection of compounds
System: HCT-116
Assay Protocol: NCI tumour cell line growth inhibition, 48 h
Active and inactive are the calls of the source. No stated cut-off is given here; in the data, active = GI50 up to about 1.1 µM and inactive = higher.

// solved cases for GI50 follow
C/C1=C\CC[C@@]2(C)O[C@@H]2C[C@@H]2[C@H](C/C(C)=C/CC1)OC(=O)C21CCN=N1 (stereo not given in full)
> 75 µM (inactive)
CCOC(CN=C=S)OCC
7.4 µM (inactive)
COc1ccc2nc3c(c(N)c2c1)C1CCC3C1(C)C (stereo not given)
32.4 µM (inactive)
C/C=C1\C=C(OC)CN(CCc2c[nH]c3ccccc23)C1
36.4 µM (inactive)
C[C@@H]1S[C@H](c2ccccc2F)N2Cc3ccccc3N=C12
17.1 µM (inactive)
CC(C)C1=CC2=CC[C@@H]3[C@](C)(CCC[C@@]3(C)C(=O)O)[C@H]2CC1
45.1 µM (inactive)
Cc1ccc(S(=O)(=O)N2CCNCCN(S(=O)(=O)c3ccc(C)cc3)CCN(S(=O)(=O)c3ccc(C)cc3)CC2)cc1
> 100 µM (inactive)
COC(=O)c1c(C(=O)OC)c2ccccn2c1-c1cc(C)cc2c1C(=O)C=CC2=O
10.7 µM (inactive)
Cc1cc2ccccc2n1CC(=O)NCC(C)C
> 100 µM (inactive)

// switching to the query compound
Measured GI50, COc1ccc(OC)c(/C=C2/C(=O)N/C(=N\C(C)=O)N2C)c1 : > 100 µM (inactive)

* * *

Let's look at some molecules and their measured GI50.
Test system: TK-10
Assay Protocol: NCI tumour cell line growth inhibition, 48 h
Calls of active or inactive are those of the source. Rule as the data show it: active = GI50 up to about 1.1 µM and inactive = higher.

N#CCCN(CCC#N)c1ccc(/C=C2\N=C(c3ccccc3)N(c3ccccc3)C2=O)cc1
> 100 µM (inactive)
CCN(CCCl)CCNc1c2ccccc2nc2ccc(OC)cc12
1.58 µM (inactive)
COc1cc(OC)c(/C=C/c2cnc3ccccc3n2)c(OC)c1
> 10 µM (inactive)
O=c1ccn(C2OC(CN(O)CCC3C(O)C(CO)OC3n3ccc(=O)[nH]c3=O)C(O)C2O)c(=O)[nH]1 (configuration not stated)
> 100 µM (inactive)
Cc1nc(-n2nc(-c3ccccc3)cc2-c2ccccc2)sc1C(=O)/C=C/c1ccccc1
> 100 µM (inactive)
Cc1ccccc1C(=O)C#Cc1cn(C2CC(O)C(CO)O2)c(=O)[nH]c1=O (configuration not stated)
> 100 µM (inactive)

Form field GI50, entry CC1CCC(=O)NCCCCC(=O)N1 (configuration not stated) : > 100 µM (inactive)

Form: molecule = CN1CCOC(C(NC(=O)c2ccccc2)c2ccccc2)C1=O (configuration not stated) ; GI50 = > 100 µM (inactive)

GI50 reading for O=[N+]([O-])c1nccn1CC1OC(n2ccnc2[N+](=O)[O-])C(O)C(O)C1O (configuration not stated) : > 100 µM (inactive)

Value of measured GI50 for the entry CCCC(=O)OC1CC(n2cc(F)c(=O)[nH]c2=O)OC1CO (configuration not stated) : > 2.67 µM (inactive)

Per the record, Oc1ccc(Cl)cc1C1=Nn2c(COc3ccc4c(c3)CCCC4)nnc2SC1 has GI50 of 4.72 µM (inactive)

# GI50 (molecule: c1ccc(-c2cc(-c3ccccc3)nc(-c3ccncc3)c2)cc1 ) is 40.4 µM (inactive)

According to the records, this molecule CCCCN(CCCC)C(=C(C(Cl)=C(Cl)Cl)[N+](=O)[O-])N(CCCC)CCCC displays GI50 of > 100 µM (inactive)

Per the records, this molecule ( COc1cccc(C(C#N)NNC(=O)c2c(Cl)c(Cl)c(Cl)c(Cl)c2-c2nc3cc(C(=O)c4ccccc4)ccc3[nH]2)c1O (configuration not stated) ) has GI50 equal to 7.71 µM (inactive)

Form field GI50, entry CC(=O)/C(=C\NC(N)=S)C(=O)Nc1ccccc1C : > 100 µM (inactive)

The molecule listed as CN(C)CCN(C)P12(Oc3ccccc3O1)Oc1c(Cl)c(Cl)c(Cl)c(Cl)c1O2 shows GI50 equal to > 100 µM (inactive)
